biological target: Mitogen-activated protein kinase 8 (Homo sapiens); test: Inhibition of JNK1 (unknown origin)
Sequence (P45983 whole entry): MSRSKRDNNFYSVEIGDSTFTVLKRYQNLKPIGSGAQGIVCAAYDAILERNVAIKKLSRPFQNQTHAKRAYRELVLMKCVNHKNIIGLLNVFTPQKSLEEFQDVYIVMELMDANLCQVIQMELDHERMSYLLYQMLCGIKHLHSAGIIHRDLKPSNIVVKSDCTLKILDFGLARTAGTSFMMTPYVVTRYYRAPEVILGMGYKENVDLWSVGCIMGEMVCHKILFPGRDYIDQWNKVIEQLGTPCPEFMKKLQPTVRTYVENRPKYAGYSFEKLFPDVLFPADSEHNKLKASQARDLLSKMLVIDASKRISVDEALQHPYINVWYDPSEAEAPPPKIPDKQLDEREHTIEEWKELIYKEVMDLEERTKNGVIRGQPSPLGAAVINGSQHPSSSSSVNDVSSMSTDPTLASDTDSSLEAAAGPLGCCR
Each entry below carries its recorded IC50.
RESULT TYPE: IC50

CCOC(=O)N1CCC(Nc2ncc3cc(Oc4ccc(F)cc4F)c(=O)n(C)c3n2)CC1
2.75 µM
Cn1c(=O)c(Oc2c(Cl)cccc2Cl)cc2cnc(Nc3ccc(N4CCC(O)CC4)cc3)nc21
> 23 µM
Cn1c(=O)c(Oc2ccc(F)cc2F)cc2cnc(N3CCCC(CO)C3)nc21 (centres undefined)
> 23 µM
Cn1c(=O)c(Oc2ccc(F)cc2F)cc2cnc(Nc3ccc(N4CCCCC4)cc3)nc21
> 23 µM
Cn1c(=O)c(Oc2c(Cl)cccc2Cl)cc2cnc(NCCc3ccccn3)nc21
> 23 µM
Cn1c(=O)c(Oc2ccc(F)cc2F)cc2cnc(NC3CCN(S(N)(=O)=O)CC3)nc21
0.91 µM
Cn1c(=O)c(Oc2c(Cl)cccc2Cl)cc2cnc(N3CCC(CO)CC3)nc21
> 23 µM
Cn1c(=O)c(Oc2c(Cl)cccc2Cl)cc2cnc(NCc3ccccn3)nc21
> 23 µM
Cn1c(=O)c(Oc2ccc(F)cc2F)cc2cnc(Nc3ccc(N4CCC(O)CC4)cc3)nc21
3.79 µM

Origin of the recorded values: ChEMBL document CHEMBL3745672
